Target: UniProtKB O14638
Sequence (O14638 1-875): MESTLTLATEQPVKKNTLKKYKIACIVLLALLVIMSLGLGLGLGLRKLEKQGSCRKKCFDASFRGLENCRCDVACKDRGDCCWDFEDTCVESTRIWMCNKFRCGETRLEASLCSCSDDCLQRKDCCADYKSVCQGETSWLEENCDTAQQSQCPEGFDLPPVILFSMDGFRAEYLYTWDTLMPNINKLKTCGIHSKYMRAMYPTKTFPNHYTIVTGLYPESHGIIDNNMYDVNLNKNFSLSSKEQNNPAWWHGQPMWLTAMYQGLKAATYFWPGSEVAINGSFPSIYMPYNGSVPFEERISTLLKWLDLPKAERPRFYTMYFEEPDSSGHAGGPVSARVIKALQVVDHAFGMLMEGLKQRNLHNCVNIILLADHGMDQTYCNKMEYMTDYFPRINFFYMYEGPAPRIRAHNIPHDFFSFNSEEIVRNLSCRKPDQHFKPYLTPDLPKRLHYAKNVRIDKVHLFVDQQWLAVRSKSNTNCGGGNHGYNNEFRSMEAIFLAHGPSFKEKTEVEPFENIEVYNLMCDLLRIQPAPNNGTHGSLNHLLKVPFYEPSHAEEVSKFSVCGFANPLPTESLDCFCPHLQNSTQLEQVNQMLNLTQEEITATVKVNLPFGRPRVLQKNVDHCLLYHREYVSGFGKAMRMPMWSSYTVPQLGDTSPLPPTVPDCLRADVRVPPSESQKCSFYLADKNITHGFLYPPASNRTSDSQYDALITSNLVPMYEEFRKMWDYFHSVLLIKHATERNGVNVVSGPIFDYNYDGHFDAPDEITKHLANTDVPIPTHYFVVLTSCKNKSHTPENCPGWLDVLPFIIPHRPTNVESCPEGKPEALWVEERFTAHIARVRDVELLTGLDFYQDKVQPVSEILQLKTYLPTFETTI
Assay: ENPP3 Km ATP assay
Format: biochemical
Conditions: ATP at Km
Listed here: items and their measured IC50.

Some solved cases for reference:
smiles notation: Cc1nc(NCc2ccc(S(N)(=O)=O)cc2)c2c(C3=CCCC3)nn(C)c2n1
IC50: 0.1 to 1 µM
--
smiles notation: Cn1ncc2c(NCc3ccc(S(N)(=O)=O)s3)nc(-c3ccccn3)nc21
IC50: 0.1 to 1 µM
--
smiles notation: CN(C)CCN(C)c1nc(NCc2ccc(S(N)(=O)=O)cc2)c2c(-c3ccccc3)csc2n1
IC50: < 0.1 µM
--
smiles notation: NS(=O)(=O)c1ccc(CNc2nc(NCCO)nc3scc(-c4ccccc4)c23)cc1
IC50: < 0.1 µM

Please indicate recorded IC50 of Cn1ncc2c(NCc3ccc(S(N)(=O)=O)cc3)nc(N3CCOCC3)nc21 measured with UniProtKB O14638.
0.1 to 1 µM

Please indicate recorded IC50 of NS(=O)(=O)c1ccc(CNc2nc(-c3cccnc3)nc3scc(-c4ccccc4)c23)s1 measured with UniProtKB O14638.
> 20 µM

Please indicate recorded IC50 of CCOc1nc(NCc2ccc(S(N)(=O)=O)cc2)c2cnn(C)c2n1 measured with UniProtKB O14638.
0.1 to 1 µM
